KSV by entry:
Organism: Sus scrofa
Assay: Binding affinity to pig pancreatic lipase type 2 assessed as Stern-Volmer quenching constant at 27 degC measured after 1 min by Stern-Volmer plot analysis

Here are 4 compounds together with their reported answers.
Query: Which KSV is listed for O=c1c(-c2ccc(O)cc2)coc2cc(O)cc(O)c12 ?
Response: 1.88 10^4L/mol

Query: Do the same for O=c1c(-c2ccc(O)cc2)coc2cc(O)ccc12 please
Response: 8.95 10^4L/mol

Query: Do the same for COc1ccc(-c2coc3c(Br)c(O)ccc3c2=O)cc1 please
Response: 4.69 10^4L/mol

Query: Do the same for O=c1c(-c2cc(Br)c(O)c(Br)c2)coc2c(Br)c(O)ccc12 please
Response: 0.58 10^4L/mol

New cases:
Query: Which KSV is listed for COc1ccc(-c2coc3cc(O)ccc3c2=O)cc1 ?
Response: 0.72 10^4L/mol

###

Experiment: Non-competitive inhibition of pig pancreatic lipase type 2 using varying concentrations of p-nitrophenyl butyrate as substrate measured every 1 min for 30 mins by Lineweaver-Burk plot analysis
Design: species or system Sus scrofa
pKi: −log10 of the molar value.
property measured: pKi

Here are 2 molecules together with their reported answers.
Query: Which pKi is listed for COc1ccc(-c2coc3c(Br)c(O)ccc3c2=O)cc1 ?
Response: 2.72

Query: Do the same for COc1ccc(-c2coc3cc(O)ccc3c2=O)cc1 please
Response: 2.54

(P) O=c1c(-c2cc(Br)c(O)c(Br)c2)coc2c(Br)c(O)ccc12
(Q) O=c1c(-c2ccc(O)cc2)coc2cc(O)ccc12
Query: Could you determine which record has the numerically smaller pKi? Candidates: P and Q Kindly state the label of the option you pick.
Response: P
(P: 2.92, Q: 3.20)

###

Species on record: Sus scrofa
Assay: Binding affinity to pig pancreatic lipase type 2 assessed as quenching rate constant at 37 degC measured after 1 min by Stern-Volmer plot analysis
Kq by entry:

Here are 4 compounds together with their reported answers.
Query: Which Kq is listed for COc1ccc(-c2coc3c(Br)c(O)ccc3c2=O)cc1 ?
Response: 1.43 10^13L/mol.s

Query: Do the same for O=c1c(-c2ccc(O)cc2)coc2cc(O)ccc12 please
Response: 2.57 10^13L/mol.s

Query: Do the same for COc1ccc(-c2coc3cc(O)ccc3c2=O)cc1 please
Response: 0.66 10^13L/mol.s

Query: Do the same for O=c1c(-c2cc(Br)c(O)c(Br)c2)coc2c(Br)c(O)ccc12 please
Response: 0.7 10^13L/mol.s

Query compound follows.
Query: Which Kq is listed for O=c1c(-c2ccc(O)cc2)coc2cc(O)cc(O)c12 ?
Response: 0.67 10^13L/mol.s

###

Organism: Sus scrofa
Assay: Binding affinity to pig pancreatic lipase type 2 assessed as binding constant at 37 degC measured after 1 min by Stern-Volmer plot analysis
property measured: Ka

Query: Which Ka is listed for O=c1c(-c2cc(Br)c(O)c(Br)c2)coc2c(Br)c(O)ccc12 ?
Response: 3.21 10^4L/mol

Query: Do the same for O=c1c(-c2ccc(O)cc2)coc2cc(O)cc(O)c12 [GENISTEIN] please
Response: 0.44 10^4L/mol

Query: Do the same for O=c1c(-c2ccc(O)cc2)coc2cc(O)ccc12 [DAIDZEIN] please
Response: 1.02 10^4L/mol

Query: Do the same for COc1ccc(-c2coc3cc(O)ccc3c2=O)cc1 [FORMONONETIN] please
Response: 0.27 10^4L/mol

Query compound follows.
Query: Which Ka is listed for COc1ccc(-c2coc3c(Br)c(O)ccc3c2=O)cc1 ?
Response: 1.47 10^4L/mol
